Every entry's value here was drawn from PubChem BioAssay (NCATS).

assay info: Primary qHTS for inhibitors of nuclear receptor binding SET domain protein 2 (NSD2) in an RCH-ACV wild type WT cells (2C) (AID 1645877); further: nearly all actives have a fitted effect of over 70% in size
condition label: RCH-ACV (leukaemia line) NSD2 WT (2C) viability, CellTiter-Glo, 72 h; series mostly up to 44.9 µM
Records with an inconclusive call do not appear. Activity calls are given as the source filed them. The call rests on the fitted dose curve; in most records, active means well fitted inhibition curve with a large enough effect; inconclusive means small, poorly fitted or top-dose-only effect; inactive means no such curve, though single readings can be large or run the other way.
The reply should name one outcome from YES for active, NO for inactive

// known answers, use as guide
COc1ccc(S(=O)(=O)N(C(C)=O)c2ccccc2/C=C/c2cc[n+]([O-])cc2)cc1 | YES
O=C1NC(=O)/C(=C\c2ccc(-c3ccc(F)cc3O)o2)S1 | YES
CCc1ccc2nc(Nc3cc(Cc4ccccc4)nc(NC4CCC(O)CC4)n3)sc2c1 (configuration not stated) | YES
CCNC(=O)Nc1ccc(-c2nc3c(c(N4CCOC[C@@H]4C)n2)CCN(C2COC2)C3)cc1 | YES
CCN(C)S(=O)(=O)Nc1ccc(F)c(C(=O)c2c[nH]c3ncc(-c4cnc(C5CC5)nc4)cc23)c1F | YES

Prompt line: Please share the test call associated with CC(C)(C)C[C@H]1N[C@@H](C(=O)NC2CCC(O)CC2)[C@H](c2cccc(Cl)c2F)[C@@]12C(=O)Nc1cc(Cl)ccc12 (some centres not stated) .
Response line: YES

Prompt line: Cc1cc(C(=O)Nc2nc3cccc(Cl)c3n2C2CCCCN(C(=O)/C=C/CN(C)C)C2)ccn1 (configuration not stated) ?
Response line: YES

Prompt line: Follow-up item: `Cc1ccc(-c2nn(C(C)(C)CNC(=O)c3ccncc3)c3ncnc(N)c23)cc1`
Response line: YES

Prompt line: // repeat for CC[C@]12C=CCN3CC[C@@]4(c5cc([C@@]6(C(=O)OC)CC7C[C@@H](C(C)(F)F)CN(Cc8c6[nH]c6ccccc86)C7)c(OC)cc5N(C)[C@H]4[C@@](O)(C(=O)OC)[C@@H]1OC(C)=O)[C@@H]32 (some centres not stated) and report
Response line: YES

Prompt line: Do the same for `Cc1c(CN2CCC(Nc3ncnc4sc(CC(F)(F)F)cc34)CC2)ccc2c1cc(C#N)n2Cc1cn[nH]c1` please
Response line: YES

====

Tested on: CP268
assay info: qHTS profiling for inhibitors of Plasmodium falciparum proliferation (AID 504749); further: nearly all actives have a fitted effect of over 60% in size
condition label: P. falciparum in erythrocytes, SYBR Green DNA, 72 h; series mostly up to 12.8 µM
Results filed as inconclusive are left out. Activity calls are given as the source filed them. Calls follow the shape of the dose curve; as a rule, active = well fitted inhibition curve with a large enough effect; inconclusive = small, poorly fitted or top-dose-only effect; inactive = flat fitted curve, though single readings scatter.
Mark one answer only. Choices: active, inactive

COc1cc(N[C@@H](C)CCCN)c2ncccc2c1 | active
NS(=O)(=O)c1cc2c(cc1C(F)(F)F)N[C@H](Cc1ccccc1)NS2(=O)=O | inactive
Cc1ncc([N+](=O)[O-])n1C[C@H](O)CCl | inactive
CC(=O)C[C@H](c1ccc([N+](=O)[O-])cc1)c1c(O)c2ccccc2oc1=O | inactive
CCC[C@@H]1O[C@@H]2C[C@@H]3[C@H]4CCC5=CC(=O)C=C[C@@]5(C)[C@H]4[C@H](O)C[C@@]3(C)[C@@]2(C(=O)CO)O1 | inactive

Prompt line: Could you please tell me the result logged for `CCCCCCCCCc1ccc(OCCOCCOCCOCCOCCOCCOCCOCCOCCO)cc1` in this assay?
Response line: inactive

Prompt line: Next: `CCN(CCCCOC(=O)c1ccc(OC)c(OC)c1)[C@@H](C)Cc1ccc(OC)cc1`
Response line: inactive

Prompt line: Okay, and `CO[C@]1(NC(=O)[C@H](C(=O)O)c2ccc(O)cc2)C(=O)N2C(C(=O)O)=C(CSc3nnnn3C)CO[C@H]21` ?
Response line: inactive

Prompt line: Also `CC=C(/C(=C/C)c1ccc(O)cc1)c1ccc(O)cc1` ?
Response line: inactive

Prompt line: Can you check `O=C(O)COCCN1CCN([C@@H](c2ccccc2)c2ccc(Cl)cc2)CC1` next?
Response line: inactive
